biological target: Thrombin (Homo sapiens (Human), UniProt P00734); assay: Thrombin inhibition (Ki); type: biochemical
measuredEndpoint: Thrombin Ki (μM)

# example entries with known answers
CN(C(=O)c1cc2ccccc2cc1C(=O)C(c1cccc2ccccc12)P(=O)(O)O)C1CCN(C(=O)c2ccccc2)CC1 (stereo not shown)    No activity
O=C(O)c1cc(N2N=C(C(F)(F)F)/C(=C\C=C\c3ccco3)C2=O)ccc1Cl    No activity
CC(=O)c1ccc2c(c1)C1C=CCC1C(C(=O)O)N2 (stereo not shown)    No activity
COc1cc(/C=N/NC(=O)Cc2nnc(N)s2)ccc1OC(=O)c1ccco1    No activity
CCCc1nnc(NC(CC)OC(=O)c2cc(C)nc3ccccc23)s1 (stereo not shown)    No Activity
O=C(O)C1Nc2c(O)cc(Cl)c([N+](=O)[O-])c2C2C=CCC12 (stereo not shown)    No Activity
C/C=C/C=C/C(=O)Nc1ccccc1C(=O)O    No activity
CN(C)C(=S)Nc1ccccc1C(=O)O    No activity

Record O=C(c1cccc2ccccc12)n1cccn1 . Reported Thrombin Ki (μM): No activity

For reference, reported Thrombin Ki (μM) for CCOC(=O)c1ccc2c(c1)C1C=CCC1C(C(=O)O)N2 (stereo not shown) stands at No activity
